# fraction unbound at 5 h, 5 µM listing for each entry below
Experiment: Fraction unbound in Wistar rat brain homogenate at 5 uM after 5 hrs by equilibrium dialysis method
parameter: fraction unbound at 5 h, 5 µM

{"molecule": "O=C1NC(=O)C(c2ccccc2)(c2ccccc2)N1", "parameter": "fraction unbound at 5 h, 5 µM", "reported": 0.081}
{"molecule": "CSc1ccc2c(c1)N(CCC1CCCCN1C)c1ccccc1S2 (stereo not drawn)", "parameter": "fraction unbound at 5 h, 5 µM", "reported": 0.001}
{"molecule": "Fc1ccc([C@@H]2CCNC[C@H]2COc2ccc3c(c2)OCO3)cc1", "parameter": "fraction unbound at 5 h, 5 µM", "reported": 0.0039}
{"molecule": "CNCCC(Oc1ccc(C(F)(F)F)cc1)c1ccccc1 (stereo not drawn)", "parameter": "fraction unbound at 5 h, 5 µM", "reported": 0.004}
{"molecule": "NC(=O)N1c2ccccc2C=Cc2ccccc21 [CARBAMAZEPINE]", "parameter": "fraction unbound at 5 h, 5 µM", "reported": 0.119}
{"molecule": "CCCC(C)(COC(N)=O)COC(=O)NC(C)C (stereo not drawn)", "parameter": "fraction unbound at 5 h, 5 µM", "reported": 0.202}
{"molecule": "CNCCC=C1c2ccccc2CCc2ccccc21", "parameter": "fraction unbound at 5 h, 5 µM", "reported": 0.0046}
{"molecule": "CCN(CC)CCNC(=O)c1cc(Cl)c(N)cc1OC [METOCLOPRAMIDE]", "parameter": "fraction unbound at 5 h, 5 µM", "reported": 0.36}
{"molecule": "CN(C)CCC=C1c2ccccc2CCc2ccccc21", "parameter": "fraction unbound at 5 h, 5 µM", "reported": 0.009}
{"molecule": "Cc1ncc2n1-c1ccc(Cl)cc1C(c1ccccc1F)=NC2", "parameter": "fraction unbound at 5 h, 5 µM", "reported": 0.023}
{"molecule": "CC(C)NCC(O)COc1cccc2ccccc12 (stereo not drawn)", "parameter": "fraction unbound at 5 h, 5 µM", "reported": 0.03}
{"molecule": "Cn1c(=O)c2c(ncn2C)n(C)c1=O", "parameter": "fraction unbound at 5 h, 5 µM", "reported": 0.52}
{"molecule": "COc1ccc(C(CN(C)C)C2(O)CCCCC2)cc1 (stereo not drawn)", "parameter": "fraction unbound at 5 h, 5 µM", "reported": 0.21}
{"molecule": "O=C(CCCN1CCC(O)(c2ccc(Cl)cc2)CC1)c1ccc(F)cc1", "parameter": "fraction unbound at 5 h, 5 µM", "reported": 0.011}
{"molecule": "CN(C)CCC=C1c2ccccc2C=Cc2ccccc21", "parameter": "fraction unbound at 5 h, 5 µM", "reported": 0.0073}
{"molecule": "CCN1CCCC1CNC(=O)c1cc(S(N)(=O)=O)ccc1OC (stereo not drawn) [SULPIRIDE]", "parameter": "fraction unbound at 5 h, 5 µM", "reported": 0.63}
{"molecule": "CN1CCN(C2=Nc3cc(Cl)ccc3Nc3ccccc32)CC1", "parameter": "fraction unbound at 5 h, 5 µM", "reported": 0.011}
{"molecule": "O=c1n(CCCN2CCN(c3cccc(Cl)c3)CC2)nc2ccccn12", "parameter": "fraction unbound at 5 h, 5 µM", "reported": 0.055}
{"molecule": "CC(NC(C)(C)C)C(=O)c1cccc(Cl)c1 (stereo not drawn)", "parameter": "fraction unbound at 5 h, 5 µM", "reported": 0.17}
{"molecule": "CCCCN1CCCCC1C(=O)Nc1c(C)cccc1C (stereo not drawn)", "parameter": "fraction unbound at 5 h, 5 µM", "reported": 0.278}
{"molecule": "CN(C)CCCN1c2ccccc2Sc2ccc(Cl)cc21", "parameter": "fraction unbound at 5 h, 5 µM", "reported": 0.002}
{"molecule": "OCCOCCN1CCN(C(c2ccccc2)c2ccc(Cl)cc2)CC1 (stereo not drawn) [HYDROXYZINE]", "parameter": "fraction unbound at 5 h, 5 µM", "reported": 0.0102}
{"molecule": "CN1CCN(CCCN2c3ccccc3Sc3ccc(C(F)(F)F)cc32)CC1", "parameter": "fraction unbound at 5 h, 5 µM", "reported": 0.0007}

====

Assay: Percentage unbound in solid supported porcine brain membrane vesicles at 5 uM using four compound cocktail after 5 hrs by TRANSIL assay
Type: ADME, tissue-based, Sus scrofa
Conditions: pig

{"compound": "CN1CCN(C2=Nc3cc(Cl)ccc3Nc3ccccc32)CC1", "fraction unbound at 5 h, 5 µM": 0.0092}
{"compound": "CC(C)NCC(O)COc1cccc2ccccc12 (stereo not drawn)", "fraction unbound at 5 h, 5 µM": 0.02}
{"compound": "O=C(CCCN1CCC(O)(c2ccc(Cl)cc2)CC1)c1ccc(F)cc1", "fraction unbound at 5 h, 5 µM": 0.014}
{"compound": "CN(C)CCC=C1c2ccccc2CCc2ccccc21", "fraction unbound at 5 h, 5 µM": 0.0071}
{"compound": "NC(=O)N1c2ccccc2C=Cc2ccccc21 [CARBAMAZEPINE]", "fraction unbound at 5 h, 5 µM": 0.26}
{"compound": "CCCCN1CCCCC1C(=O)Nc1c(C)cccc1C (stereo not drawn)", "fraction unbound at 5 h, 5 µM": 0.19}
{"compound": "Cc1ncc2n1-c1ccc(Cl)cc1C(c1ccccc1F)=NC2", "fraction unbound at 5 h, 5 µM": 0.037}
{"compound": "CC(NC(C)(C)C)C(=O)c1cccc(Cl)c1 (stereo not drawn)", "fraction unbound at 5 h, 5 µM": 0.14}

====

Experiment: Binding affinity to Wistar rat brain lipid by TRANSIL assay
Type: ADME
Criterion: Kd strictly less than 40 µM. Met: MET. Not met: NOT MET.

{"compound": "CC(=O)CC(c1ccccc1)c1c(O)c2ccccc2oc1=O (stereo not given) [WARFARIN]", "category label": "NOT MET"}
{"compound": "O=c1n(CCCN2CCN(c3cccc(Cl)c3)CC2)nc2ccccn12 [TRAZODONE]", "category label": "MET"}
{"compound": "CC(C)Cc1ccc(C(C)C(=O)O)cc1 (stereo not given) [IBUPROFEN]", "category label": "NOT MET"}
{"compound": "CN1CCN(CCCN2c3ccccc3Sc3ccc(C(F)(F)F)cc32)CC1 [TRIFLUOPERAZINE]", "category label": "MET"}
{"compound": "NC(=O)N1c2ccccc2C=Cc2ccccc21 [CARBAMAZEPINE]", "category label": "MET"}
{"compound": "CN(C)CCCN1c2ccccc2Sc2ccc(Cl)cc21 [CHLORPROMAZINE]", "category label": "MET"}
{"compound": "CNCCC(Oc1ccc(C(F)(F)F)cc1)c1ccccc1 (stereo not given) [FLUOXETINE]", "category label": "MET"}
{"compound": "CN(C)CCC=C1c2ccccc2CCc2ccccc21 [AMITRIPTYLINE]", "category label": "MET"}
{"compound": "COc1ccc(C(CN(C)C)C2(O)CCCCC2)cc1 (stereo not given) [VENLAFAXINE]", "category label": "MET"}
{"compound": "CCN(CC)CCNC(=O)c1cc(Cl)c(N)cc1OC [METOCLOPRAMIDE]", "category label": "NOT MET"}

====

Assay: Binding affinity to Wistar rat brain lipid assessed as percentage unbound by TRANSIL assay
Type: ADME, tissue-based
# fraction unbound listing for each entry below

{"structure": "CN(C)CCC=C1c2ccccc2CCc2ccccc21", "fraction unbound": 0.0083}
{"structure": "CN1CCN(C2=Nc3cc(Cl)ccc3Nc3ccccc32)CC1", "fraction unbound": 0.0064}
{"structure": "CN(C)CCCN1c2ccccc2Sc2ccc(Cl)cc21", "fraction unbound": 0.0015}

====

Assay: Percentage unbound in solid supported porcine brain membrane vesicles at 5 uM by TRANSIL assay
Settings: pig, Brain

{"molecule": "CCN(CC)CCNC(=O)c1cc(Cl)c(N)cc1OC [METOCLOPRAMIDE]", "fraction unbound at 5 µM": 0.295}
{"molecule": "O=C(CCCN1CCC(O)(c2ccc(Cl)cc2)CC1)c1ccc(F)cc1", "fraction unbound at 5 µM": 0.014}
{"molecule": "OCCOCCN1CCN(C(c2ccccc2)c2ccc(Cl)cc2)CC1 (configuration not stated) [HYDROXYZINE]", "fraction unbound at 5 µM": 0.021}
{"molecule": "COc1ccc(C(CN(C)C)C2(O)CCCCC2)cc1 (configuration not stated)", "fraction unbound at 5 µM": 0.123}
{"molecule": "CN1CCN(CCCN2c3ccccc3Sc3ccc(C(F)(F)F)cc32)CC1", "fraction unbound at 5 µM": 0.0018}
{"molecule": "CN(C)CCCN1c2ccccc2Sc2ccc(Cl)cc21", "fraction unbound at 5 µM": 0.0022}
{"molecule": "CNCCC=C1c2ccccc2CCc2ccccc21", "fraction unbound at 5 µM": 0.004}
